src = patent US9273057B2

biological target: CK2A1 (CK2α/β) (Homo sapiens); test: CK2 kinase assay, CK2A1 (CK2α/β); assay type: biochemical; details: Table A; read-out: CK2A1 (CK2α/β) (IC50)
Sequence (P68400 whole entry, species assumed): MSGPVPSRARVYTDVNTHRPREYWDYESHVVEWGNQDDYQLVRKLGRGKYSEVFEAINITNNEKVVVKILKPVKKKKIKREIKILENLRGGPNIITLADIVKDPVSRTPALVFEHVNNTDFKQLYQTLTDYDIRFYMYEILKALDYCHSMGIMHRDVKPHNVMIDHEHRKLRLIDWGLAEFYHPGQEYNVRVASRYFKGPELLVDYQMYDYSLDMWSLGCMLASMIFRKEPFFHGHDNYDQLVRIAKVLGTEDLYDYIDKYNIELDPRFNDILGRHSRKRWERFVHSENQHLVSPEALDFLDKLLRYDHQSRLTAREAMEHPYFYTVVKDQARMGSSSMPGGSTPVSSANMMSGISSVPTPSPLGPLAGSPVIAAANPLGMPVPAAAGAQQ
Sequence (P67870 whole entry partner, species assumed): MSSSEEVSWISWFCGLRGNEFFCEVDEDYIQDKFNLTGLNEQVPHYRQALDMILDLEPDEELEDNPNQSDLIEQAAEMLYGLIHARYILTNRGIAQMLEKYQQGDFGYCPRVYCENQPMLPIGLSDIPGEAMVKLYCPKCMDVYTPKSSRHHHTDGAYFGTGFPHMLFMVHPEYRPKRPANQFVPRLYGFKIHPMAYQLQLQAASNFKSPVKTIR
In this section we review reported IC50 values for a set of molecules.

>  <molecule>
C[C@H](O)CN1CC(N2CCC(c3cc(C#N)cc(Nc4nc(NC5CC5)c5ncc(C#N)n5n4)c3Cl)CC2)C1

>  <study-system>
CK2A1 (CK2α/β) (Homo sapiens)

>  <IC50>
1.78 nM

$$$$
>  <molecule>
C[C@@H]1OCC[C@@H]1NC1CCN(c2cc(C#N)cc(Nc3nc(NC4CC4)c4ncc(C#N)n4n3)c2Cl)CC1 (racemic)

>  <study-system>
CK2A1 (CK2α/β) (Homo sapiens)

>  <IC50>
0.55 nM

$$$$
>  <molecule>
CCNc1nc(Nc2cc(C#N)cc(N3CCC4(CC3)CC(=O)N(C)C4)c2Cl)nn2c(C#N)cnc12 (racemic)

>  <study-system>
CK2A1 (CK2α/β) (Homo sapiens)

>  <IC50>
3.76 nM

$$$$
>  <molecule>
CC(C)(O)[C@H]1CN(c2cc(C#N)cc(Nc3nc(NC4CC4)c4ncc(C#N)n4n3)c2Cl)CCO1

>  <study-system>
CK2A1 (CK2α/β) (Homo sapiens)

>  <IC50>
1.2 nM

$$$$
>  <molecule>
CC(C)(O)C(=O)N1CCN(c2cc(C#N)cc(Nc3nc(NC4CC4)c4ncc(C#N)n4n3)c2Cl)CC1

>  <study-system>
CK2A1 (CK2α/β) (Homo sapiens)

>  <IC50>
0.53 nM

$$$$
>  <molecule>
N#Cc1cc(Nc2nc(NC3CC3)c3ncc(C#N)n3n2)c(Cl)c(N2CCN(C3CN(C(=O)C4CCCO4)C3)CC2)c1 (stereo not shown)

>  <study-system>
CK2A1 (CK2α/β) (Homo sapiens)

>  <IC50>
3.66 nM

$$$$
>  <molecule>
CS(=O)(=O)NC(=O)CN1CCN(c2cc(C#N)cc(Nc3nc(NC4CC4)c4ncc(C#N)n4n3)c2Cl)CC1

>  <study-system>
CK2A1 (CK2α/β) (Homo sapiens)

>  <IC50>
0.56 nM

$$$$

----------
target: CK2A1 (CK2α/β) (Homo sapiens); assay: CK2 kinase assay, CK2A1 (CK2α/β); format: biochemical; conditions: Table A; read-out: CK2A1 (CK2α/β) (IC50)
endpoint-name: IC50 (nM)

>  <molecule>
N#Cc1cc(Nc2nc(NC3CC3)c3ncc(C#N)n3n2)c(Cl)c(N2CCC3(CC2)CN(CC(=O)N2CCNCC2)C3)c1

>  <number>
1.7

$$$$
>  <molecule>
COC(=O)N[C@@H]1CCN(c2cc(C(F)F)cc(Nc3nc(NC4CC4)c4ncc(C#N)n4n3)c2Cl)C[C@H]1O

>  <number>
2.08

$$$$
>  <molecule>
CN1CCN(C(=O)N[C@@H]2CCN(c3cc(C#N)cc(Nc4nc(NC5CC5)c5ncc(C#N)n5n4)c3Cl)C[C@H]2O)CC1 (racemic)

>  <number>
0.66

$$$$
>  <molecule>
N#CCC1(NC2CCN(c3cc(C#N)cc(Nc4nc(NC5CC5)c5ncc(C#N)n5n4)c3Cl)CC2)COC1 (racemic)

>  <number>
1.57

$$$$
>  <molecule>
CCNc1nc(Nc2cc(C#N)cc(NCCO)c2Cl)nn2c(C#N)cnc12

>  <number>
0.68

$$$$
>  <molecule>
CN1CCN(C(CO)CCc2cc(C#N)cc(Nc3nc(NC4CC4)c4ncc(C#N)n4n3)c2Cl)CC1 (stereo not shown)

>  <number>
1.92

$$$$
>  <molecule>
CCOCCC(=O)N1CC(N2CCN(c3cc(C#N)cc(Nc4nc(NC5CC5)c5ncc(C#N)n5n4)c3Cl)CC2)C1

>  <number>
4.62

$$$$
